TESTED_SYSTEM: Cystic fibrosis transmembrane conductance regulator (Homo sapiens, UniProt P13569, F508DEL)
Sequence (P13569 as listed by the source): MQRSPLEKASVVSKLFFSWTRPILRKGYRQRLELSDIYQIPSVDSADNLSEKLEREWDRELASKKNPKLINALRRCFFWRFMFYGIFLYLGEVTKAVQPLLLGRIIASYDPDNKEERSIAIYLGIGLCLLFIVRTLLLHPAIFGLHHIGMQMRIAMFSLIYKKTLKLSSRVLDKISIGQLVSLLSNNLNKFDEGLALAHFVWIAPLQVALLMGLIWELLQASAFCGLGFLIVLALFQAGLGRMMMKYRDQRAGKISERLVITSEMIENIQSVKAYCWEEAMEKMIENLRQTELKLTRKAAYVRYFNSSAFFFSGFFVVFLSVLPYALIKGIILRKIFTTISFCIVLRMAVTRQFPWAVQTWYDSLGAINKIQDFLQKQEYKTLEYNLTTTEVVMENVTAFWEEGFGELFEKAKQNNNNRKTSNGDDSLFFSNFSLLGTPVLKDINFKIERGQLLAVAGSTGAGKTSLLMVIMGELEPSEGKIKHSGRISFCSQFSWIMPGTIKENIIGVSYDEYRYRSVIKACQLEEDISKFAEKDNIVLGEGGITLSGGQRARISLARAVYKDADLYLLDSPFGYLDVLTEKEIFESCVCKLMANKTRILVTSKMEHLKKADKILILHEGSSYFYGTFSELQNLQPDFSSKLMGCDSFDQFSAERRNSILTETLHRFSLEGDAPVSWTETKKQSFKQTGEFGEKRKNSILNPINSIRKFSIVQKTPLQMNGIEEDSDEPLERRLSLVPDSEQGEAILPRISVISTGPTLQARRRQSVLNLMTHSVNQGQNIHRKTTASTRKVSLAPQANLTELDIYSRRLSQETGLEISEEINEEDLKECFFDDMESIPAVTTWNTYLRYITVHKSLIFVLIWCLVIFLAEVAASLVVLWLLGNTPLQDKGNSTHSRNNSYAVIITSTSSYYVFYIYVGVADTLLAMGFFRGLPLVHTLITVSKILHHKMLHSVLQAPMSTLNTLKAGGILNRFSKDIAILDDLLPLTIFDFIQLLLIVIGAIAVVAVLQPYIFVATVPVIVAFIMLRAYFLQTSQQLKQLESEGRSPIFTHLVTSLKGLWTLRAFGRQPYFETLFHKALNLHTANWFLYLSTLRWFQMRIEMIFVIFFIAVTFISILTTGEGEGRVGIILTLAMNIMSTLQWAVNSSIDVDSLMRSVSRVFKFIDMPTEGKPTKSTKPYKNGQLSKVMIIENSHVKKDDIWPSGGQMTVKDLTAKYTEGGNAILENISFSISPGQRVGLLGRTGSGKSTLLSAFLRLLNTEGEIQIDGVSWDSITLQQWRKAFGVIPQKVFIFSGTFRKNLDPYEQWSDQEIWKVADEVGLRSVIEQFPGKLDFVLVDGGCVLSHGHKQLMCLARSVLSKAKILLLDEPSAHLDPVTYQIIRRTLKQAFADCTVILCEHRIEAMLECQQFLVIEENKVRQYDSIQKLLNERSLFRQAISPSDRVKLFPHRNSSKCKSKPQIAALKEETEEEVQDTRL
PROTOCOL_SUMMARY: Potentiator activity at CFTR F508del mutant (unknown origin) expressed in human CFBE41o cells assessed as increase in iodine influx measured after 30 mins incubation following rescue of F508del-CFTR by low temperature for 24 hrs by HS-YFP assay
Format: cell-based
Note to self: use Y only for EC50 readings below 30 µM; a reading exactly at 30 µM still gets N.

# SMILES_NOTATION, LABEL_VALUE
measured = [
    ("CSc1cccc(Nc2nc(-c3nccs3)cs2)c1", "Y"),
    ("CSc1cccc(Nc2nc(-c3ccc(F)cc3)cs2)c1", "Y"),
    ("CSc1cccc(Nc2nc(-c3ccc4c(c3)OCO4)cs2)c1", "N"),
    ("FC(F)(F)Sc1cccc(Nc2nc(-c3cccc(Cl)c3)cs2)c1", "N"),
    ("CCOC(=O)c1cc(-c2csc(Nc3cccc(SC)c3)n2)on1", "N"),
    ("CSc1cccc(Nc2nc(-c3cccc(Cl)c3)cs2)c1", "N"),
    ("CSc1cccc(Nc2nc(-c3ccc4[nH]c(=O)oc4c3)cs2)c1", "Y"),
    ("CSc1cccc(Nc2nc(-c3cc(Cl)cs3)cs2)c1", "Y"),
    ("CSc1cccc(Nc2nc(-c3ccc(C#N)cc3)cs2)c1", "N"),
]

====

Test system: Cystic fibrosis transmembrane conductance regulator (Homo sapiens), P13569 [F508del]
PROTOCOL_SUMMARY: Corrector activity at CFTR F508del mutant (unknown origin) expressed in human CFBE41o cells assessed as iodide influx at 10 uM after 24 hrs by HS-YFP assay
Assay type: cell-based
The source made the active and inactive calls. No rule for the calls is given here.
Outcome codes: active, inactive

# SMILES_NOTATION, LABEL_VALUE
records = [
    ("CSc1cccc(Nc2nc(-c3cc(Br)ccc3O)cs2)c1", "inactive"),
    ("CSc1cccc(Nc2nc(-c3cc(Cl)cc(C(F)(F)F)c3)cs2)c1", "active"),
    ("CSc1cccc(Nc2nc(-c3ccc(O)c(O)c3)cs2)c1", "inactive"),
    ("CSc1cccc(Nc2nc(-c3nc(C)cs3)cs2)c1", "inactive"),
    ("Brc1ccc(-c2csc(NC3CCCCC3)n2)cc1", "inactive"),
    ("CSc1cccc(Nc2nc(-c3ccccc3)c(C(=O)c3ccccc3)s2)c1", "inactive"),
    ("CSc1cccc(Nc2nc(-c3cccc(F)c3)cs2)c1", "inactive"),
    ("CCc1ccc(Nc2nc(-c3cccc(Cl)c3)cs2)cc1SC", "active"),
    ("CSc1cccc(Nc2nc(-c3ccccc3)c(C)s2)c1", "inactive"),
    ("CSc1cccc(Nc2nc(C)cs2)c1", "inactive"),
    ("CSc1cccc(Nc2nc(-c3cc(Cl)c(O)c(Cl)c3)cs2)c1", "active"),
    ("CSc1cccc(Nc2nc(-c3ccc4c(c3)OCO4)cs2)c1", "inactive"),
    ("CSc1cccc(Nc2nc3ccc(Br)cc3s2)c1", "inactive"),
    ("COc1ccc(-c2csc(Nc3cccc(SC)c3)n2)c(OC)c1", "inactive"),
    ("CSc1cccc(Nc2nc(-c3nc4ccccc4n3C)cs2)c1", "inactive"),
    ("CSc1cccc(Nc2nc(-c3cccc(C)c3)cs2)c1", "inactive"),
    ("CSc1cccc(Nc2nc(-c3cc(OC(C)=O)c(OC(C)=O)c(OC(C)=O)c3)cs2)c1", "inactive"),
    ("CCOC(=O)c1cc(-c2csc(Nc3cccc(SC)c3)n2)on1", "inactive"),
    ("Brc1ccc(-c2csc(N3CCCCC3)n2)cc1", "inactive"),
    ("Brc1ccc(-c2csc(NCc3ccccc3)n2)cc1", "inactive"),
    ("O=C(Nc1nc(-c2ccc(Br)cc2)cs1)c1ccccc1O", "inactive"),
    ("CSc1cccc(Nc2nc(-c3cnc4ccccc4c3)cs2)c1", "inactive"),
    ("CSc1cccc(Nc2nc(-c3ccccn3)cs2)c1", "inactive"),
    ("O=C(Nc1nc(-c2ccc(Br)cc2)cs1)c1ccncc1", "inactive"),
    ("CSc1cccc(Nc2nc(-c3ccc4c(c3)C(C)(C)CCC4(C)C)cs2)c1", "inactive"),
    ("CSc1cccc(Nc2nc(-c3ccc4c(c3)ncn4C)cs2)c1", "inactive"),
    ("CSc1cccc(Nc2nc(-c3ccc(CCCl)cc3)cs2)c1", "inactive"),
]

Origin of values: ChEMBL document CHEMBL3596188
